Taken from patent US20220282217A1.

- system-name: HLA-A02.01 (human)
- test-name: pMHC-I complex dissociation at 37 C, 125I-b2m, half-life

binder | Stability (T1/2 (h))
KLFSCLSFL (also called C15ORF40(+1)) | 14.3
ALEEKKGNYV (also called EGFRvIII (internal deletion)) | 0
NVVPLNDLL (also called ESR1, Y537N) | 0
PLNDLLLEML (also called ESR1, Y537N) | 0
ILMELMAGGD (also called ALK, L1196M) | 0
PLCDLLLEML (also called ESR1, Y537C) | 0.9
NVVPLSDLL (also called ESR1, Y537S) | 0
ILMELMAGG (also called ALK, L1196M) | 0.5
IIEFMTYGNL (also called ABL1, T315I) | 0
NVVPLCDLLL (also called ESR1, Y537C) | 0
NVVPLNDLLL (also called ESR1, Y537N) | 0
GVYTFLPSTL (also called ESR1, S463P) | 0.4
